test system: Carrageenin-induced edema; test: Carrageenin-induced edema; type: in vivo, rat (Donryu strain, male); details: Rattus norvegicus, po; 5 mg/kg p.o., mean in 5 hours; read-out: Inhibitory percent of swelling
Answer each item with its documented inhibition in vivo at 5 mg/kg.
Return type: number; implicit unit %.

Input line: Reported inhibition in vivo at 5 mg/kg, compound CC(C(=O)O)c1ccc(-c2cccs2)c(Cl)c1 (stereo not shown) : ____
Output line: 42

Input line: May I ask what inhibition in vivo at 5 mg/kg has been recorded for O=C(O)Cc1ccc(-c2cccs2)cc1 ?
Output line: 15.1

Input line: Look up inhibition in vivo at 5 mg/kg: CCc1ccsc1-c1ccc(C(C)C(=O)O)cc1 (stereo not shown)
Output line: 9.3

Input line: inhibition in vivo at 5 mg/kg for Cc1cc(-c2ccc(C(C)C(=O)O)cc2)sc1C (stereo not shown) ?
Output line: -21.6

Input line: Fill in: inhibition in vivo at 5 mg/kg of CC(C(=O)O)c1ccc(-c2ccc(Cl)s2)cc1 (stereo not shown) is ___
Output line: 17

Input line: // inhibition in vivo at 5 mg/kg lookup, key: Cc1ccsc1-c1ccc(C(C)C(=O)O)cc1 (racemic) [Racemic compound]
Output line: 48.5

Input line: I am curious: what inhibition in vivo at 5 mg/kg value has been reported for CC(C(=O)O)c1ccc(-c2cccs2)cc1 (stereo not shown) ?
Output line: 32.9

Input line: For the compound shown here, Cc1ccsc1-c1ccc(C(C)C(=O)O)cc1 (single isomer, unassigned; isomer d) [d-Isomer] , give the reported inhibition in vivo at 5 mg/kg.
Output line: 57.2

Input line: Query (compound): Cc1ccc(-c2ccc(C(C)C(=O)O)cc2)s1 (stereo not shown) ; field requested: inhibition in vivo at 5 mg/kg
Output line: 19.1

Input line: Item CCCc1ccsc1-c1ccc(C(C)C(=O)O)cc1 (stereo not shown) has what recorded inhibition in vivo at 5 mg/kg?
Output line: -7.2
